- System: HS 578T breast
- Assay Procedure: NCI tumour cell line growth inhibition, 48 h
Please go through the items and note down their TGI.

Solved entries (count: 4):
c1ccc(-c2nn(-c3ccccc3)[n+](-c3ccccc3)n2)cc1	> 100 µM
C=CC[C@H](C)CCC(=O)N1[C@H]2CC3CC[C@@]2(CS1(=O)=O)C3(C)C	> 100 µM
CC[C@@H](/C=C\CCC1(C[C@H](O)CCC=C(C)C)OCCO1)O[Si](C(C)C)(C(C)C)C(C)C	80.5 µM
C[C@@H]1COCCN1c1cc(C2(S(C)(=N)=O)CC2)nc(-c2ccnc3[nH]ccc23)n1 (stereo not given in full)	22.1 µM

Reported TGI for N#CC1(C#N)NC(c2ccsc2)C(C#N)(C#N)NC1c1ccsc1 (stereo not given) : what is it? > 100 µM

###

Kindly state TGI for each of the entries shown.
- Test system: PC-3 prostate
- Assay Procedure: NCI tumour cell line growth inhibition, 48 h

COC(=O)/C=c1/c2ccccc2n2nc3ccccc3c12	> 100 µM
COc1cc(COC(=O)N2CCC2C(=O)O)c([N+](=O)[O-])cc1OC (configuration not stated)	> 100 µM
Cc1nnc2n1-c1ccccc1C(=S)N1CSCC21 (configuration not stated)	> 100 µM

List TGI for every entry below, keeping the order given.
1. CCC1C(c2cc(OC)c(OC)c(OC)c2)c2cc3c(cc2OC1N1CCOCC1)OCO3 (configuration not stated)
2. CC(C)CCn1c(=O)c2c(=O)[nH][nH]c2c2ccccc21
3. CC(C)=CCC/C(C)=C/CC/C(C)=C/CC/C(C)=C/CC/C(C)=C\CC/C(C)=C/CC/C(C)=C/CC/C(C)=C/Cc1cc(O)ccc1O
4. COc1ccc2c(c1)OC(N(C(C)=O)C(C)=O)=C(C#N)C2c1ccc(F)cc1 (configuration not stated)

["14.1 µM", "> 100 µM", "2.44 µM", "> 100 µM"]

###

- System: T-47D breast
- Assay Procedure: NCI tumour cell line growth inhibition, 48 h
Measurement Name: TGI (µM)
Answers are plain numbers, in µM.

CC(C)=CCC/C(C)=C/CC/C(C)=C/CC/C(C)=C/CC/C(C)=C\CC/C(C)=C/CC/C(C)=C/CC/C(C)=C/Cc1cc(O)ccc1O	50.1
c1ccc(CSc2nc(N3CCOCC3)c3cn[nH]c3n2)cc1	68.5
Cc1cc2c(c(C=NCc3ccccc3)c1)OC1(C=C2)Oc2ccccc2C(=O)N1C (centres undefined)	45.9

# next compound below
Requested field: TGI. Item: COc1cc(Nc2nc(N[C@H]3CCCC[C@@H]3N)nc3cc[nH]c(=O)c23)cc(OC)c1 30.2

###

- Test system: MCF7 breast
- Assay Procedure: NCI tumour cell line growth inhibition, 48 h
Measurement Name: GI50

Below: 4 compounds and their reported GI50.
COc1cc(Nc2nc(N[C@H]3CCCC[C@@H]3N)nc3cc[nH]c(=O)c23)cc(OC)c1	1.37 µM
COc1ccc2c(c1)OC(N(C(C)=O)C(C)=O)=C(C#N)C2c1ccc(F)cc1 (stereo not given)	0.593 µM
CC(=O)OCC1OC(n2ccc(=O)[nH]c2=O)C(OC(C)=O)C1OC(C)=O (stereo not given)	> 100 µM
ClCc1c(Cl)c(Cl)c(Cl)c(CCl)c1Cl	1.73 µM

Query (compound): CC(CNC(Cc1ccccc1)c1ccccc1)NC(Cc1ccccc1)c1ccccc1 (stereo not given) ; field requested: GI50 2.08 µM

###

- Tested on: UACC-257 melanoma
- Assay Procedure: NCI tumour cell line growth inhibition, 48 h; in the data active means GI50 below about 0.43 µM; inactive means the rest
Hi! Could you answer with just one of these? True for active, False for inactive

These recorded examples may help you get a feel for the data.
c1cnc2[nH]cc(-c3csc(-c4cn(CCCCN5CCOCC5)c5ccccc45)n3)c2c1	False
Oc1ccc(CCCCCCc2ccc(O)cc2)cc1	False
CC(=O)OCC1OC(n2ccc(=O)[nH]c2=O)C(OC(C)=O)C1OC(C)=O (stereo not given)	False
CC1OC2CC(=O)OC2C2=C1C(=O)c1c(O)c3c(c(O)c1C2=O)C1CC(O)C3(O)C(C)O1 (stereo not given)	True
CCCCN(Cc1ccc(F)cc1)c1ccc(CO)c(Cl)c1	False
CCN(Cc1ccccc1OC)c1ccc(CO)c(Cl)c1	True
CO/N=C(\C)c1ccc(Nc2cc(-c3ccccc3)nc3c(O)cccc23)cc1	False
Cc1nc2sc(C(=O)Nc3ccccc3)c(N)c2cc1C(=O)/C=C/c1ccccc1	False

Entry Cn1ccnc1C(=O)/C=C/c1ccc(CC(=O)Nc2ccccc2)cc1 : call = ? False

Test call, this compound: Nc1cc(N)c(N)cc1N False

###

- Tested on: SK-OV-3 ovarian
- Assay Procedure: NCI tumour cell line growth inhibition, 48 h; in the data active = GI50 below about 0.43 µM; inactive = the rest
Returns: one label drawn from active, inactive

// return assay outcome for CC(=O)[O-].CC(=O)[O-].[NH2-].[Pt+2].c1ccc2cnccc2c1 inactive

###

- Test system: RXF 393 renal
- Assay Procedure: NCI tumour cell line growth inhibition, 48 h
Measurement Name: TGI (µM)
One number for each entry, in µM.

C=C1C(=O)O[C@H]2[C@H]1CC/C(COC(=O)N1CCC[C@H]1C(=O)Nc1ccc(OC)c(C(N)=O)c1O)=C\CC[C@@]1(C)O[C@@H]21	2.79

Could you now consider this next molecule?
I am curious: what TGI value has been reported for Nc1nc(Cl)cc(Nc2cc(Cl)cc(Cl)c2)n1 ? 38.3

###

Kindly state TGI for each of the entries shown.
- Tested on: UACC-62 melanoma
- Assay Procedure: NCI tumour cell line growth inhibition, 48 h

CCOc1cc(NC(C)=O)ccc1C(=O)NN1C(=O)/C(=C/c2cc(OC)c(OC)c(OC)c2)N=C1c1ccccc1	> 100 µM
Fc1ccc2[nH]c3c(NCCCN4CCOCC4)ncnc3c2c1	40.4 µM
CCOc1ccc(NCc2cc(OC)c(OC)c(OC)c2)cc1	> 100 µM
CCCCOC(=O)C(O)Cc1ccoc1 (stereo unspecified)	> 100 µM
CCCCCCCCCCCC[n+]1ccc(CCCCCCCCC)cc1	1.73 µM

What reported TGI corresponds to O=C1CC[C@@H](S(=O)(=O)c2ccccc2)[C@@H](/C=C/c2ccccc2)O1 on UACC-62 melanoma? > 100 µM

###

- Test system: SF-295 CNS
- Assay Procedure: NCI tumour cell line growth inhibition, 48 h
Measurement Name: TGI (µM)
Answers are plain numbers, in µM.

Record excerpt, results attached:
CC(C)(C)c1ccc(S(=O)(=O)N[C@H]2CC[C@H]3[C@@H]4CCc5cc(OS(=O)(=O)O)ccc5[C@H]4CC[C@]23C)cc1	6.76
C#CC[C@@H]1C[C@]2(C)[C@H]3CC=C4[C@H]5CC(C)(C)CC[C@]5(C(=O)NCCCCN)CC[C@@]4(C)[C@]3(C)CC[C@H]2C(C)(C)[C@H]1OC(C)=O	3.29
CCCCCCCCCCCCCC(=O)CBr	29.3

We next turn to a different compound, shown below.
Given the entry C=C1CC[C@@H]2[C@](C)(COC(C)=O)[C@H](OC(C)=O)CC[C@@]2(C)[C@@H]1CC(Nc1ccc(S(=O)(=O)Nc2nccc(C)n2)cc1)C1=CCOC1=O (stereo not given in full) , what TGI was observed with SF-295 CNS? 25.6

###

- System: NCI-H460 lung
- Assay Procedure: NCI tumour cell line growth inhibition, 48 h
Classification field: Satisfied = TGI at or over 20 µM; Not satisfied = TGI under 20 µM.

As a guide, the following entries are already answered.
Brc1ccccc1-c1ncc(-c2ccccc2)o1	Satisfied
COc1ccc(-c2cc(N3CCN(c4ccccc4)CC3)c(C#N)c(=O)o2)cc1	Satisfied
COc1cccc(C2c3cc4c(cc3OC(O)(CO)C2C(=O)O)OCO4)c1 (centres undefined) (tested in a mixture with another compound)	Satisfied
CCN(Cc1ccccc1OC)c1ccc(CO)c(Cl)c1	Not satisfied
NNC(=O)CCC(=O)NC1C2CC3CC(C2)CC1C3 (centres undefined)	Satisfied

API: above_or_equal(metric=TGI, cutoff=20 µM) for item Cn1c2ccccc2c(=NNc2ccc(C(=O)O)cc2)c2ccccc21 Satisfied

Could you verify whether the entry N[C@H](C(=O)O)[C@H](Cl)CC(=O)O shows TGI of no less than 20 µM? Satisfied

Decide: TGI of CC[C@@H](/C=C\CCC1(C[C@H](O)CCC=C(C)C)OCCO1)O[Si](C(C)C)(C(C)C)C(C)C >= 20 µM? Satisfied

Has O=C1/C(=C/c2ccc(O)cc2)COc2ccc(-c3ccccc3)cc21 a recorded TGI greater than or equal to 20 µM? Not satisfied

Is TGI at least 20 µM? Consider Cn1c(-c2ccc(/C=N\N3CCN(/N=C/c4ccc(-c5c[n+]6ccccc6n5C)cc4)CC3)cc2)c[n+]2ccccc12 Satisfied

Say whether CSc1ccc(/C=C2\N=C(c3ccccc3)N(c3nc4ccc(Sc5ccccc5)cc4[nH]3)C2=O)cc1 shows TGI of 20 µM or more. Satisfied

Can N#CC1(C#N)NC(c2ccsc2)C(C#N)(C#N)NC1c1ccsc1 (centres undefined) be said to have TGI at or above 20 µM? Satisfied

Does the reported TGI for CC(=O)OC1c2ccccc2CCCCCCC12OCCO2 (centres undefined) fall at or above the 20 µM mark? Satisfied

Has O=C1CC[C@@H](S(=O)(=O)c2ccccc2)[C@@H](/C=C/c2ccccc2)O1 a recorded TGI greater than or equal to 20 µM? Satisfied

These data points were gathered from PubChem BioAssay (NCI).
